Assignment: determine reported pKi for the given molecules.
# MEASURED_ON: 5-hydroxytryptamine receptor 1D (Homo sapiens)
# Sequence (P28221 whole entry): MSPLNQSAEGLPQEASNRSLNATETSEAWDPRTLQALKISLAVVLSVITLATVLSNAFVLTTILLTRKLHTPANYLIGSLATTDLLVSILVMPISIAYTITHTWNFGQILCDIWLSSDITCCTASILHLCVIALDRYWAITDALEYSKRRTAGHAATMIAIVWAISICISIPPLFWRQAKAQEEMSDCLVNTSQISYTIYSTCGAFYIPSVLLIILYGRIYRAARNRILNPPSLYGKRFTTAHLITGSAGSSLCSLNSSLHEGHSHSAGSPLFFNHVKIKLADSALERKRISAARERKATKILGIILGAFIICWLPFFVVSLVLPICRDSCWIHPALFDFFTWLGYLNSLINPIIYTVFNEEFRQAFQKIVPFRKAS
Answers are plain numbers, as −log10 of the molar value.

Could you tell me pKi for each of these molecules? They are listed below.
1. CC(=O)Nc1ccc2[nH]cc(C3CCN(C)CC3)c2n1
2. CN1CCC(c2c[nH]c3cnc(NC(=O)c4ccc(F)cc4)nc23)CC1
3. CN1CCC(c2c[nH]c3ccc(NC(=O)c4ccc(C#N)cc4)nc23)CC1
4. CC(=O)Nc1ncc2[nH]cc(C3CCN(C)CC3)c2n1
5. CN1CCC(c2c[nH]c3ccc(NC(=O)c4ccsc4)nc23)CC1
6. CNC(=O)Nc1ccc2[nH]cc(C3CCN(C)CC3)c2n1

Result:
6.60
5.72
6.42
6.33
6.09
8.07

* * *

Assignment: determine reported pEC50 for the given molecules.
# MEASURED_ON: 5-hydroxytryptamine receptor 1F (Homo sapiens)
# Sequence (P30939 whole entry): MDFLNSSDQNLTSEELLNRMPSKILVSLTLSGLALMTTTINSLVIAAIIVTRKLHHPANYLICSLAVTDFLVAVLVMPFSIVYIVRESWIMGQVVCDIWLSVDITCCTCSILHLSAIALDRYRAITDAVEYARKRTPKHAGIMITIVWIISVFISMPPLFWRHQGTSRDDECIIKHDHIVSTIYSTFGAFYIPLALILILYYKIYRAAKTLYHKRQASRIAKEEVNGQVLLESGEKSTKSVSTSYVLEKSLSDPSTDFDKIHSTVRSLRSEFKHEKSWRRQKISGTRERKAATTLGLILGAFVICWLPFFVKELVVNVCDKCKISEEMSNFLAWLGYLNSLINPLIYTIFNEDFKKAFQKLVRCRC
# ASSAY_METHOD_TEXT: In vitro effective concentration for stimulation of [35S]GTP-gamma-S, binding in mouse LM(tk-)cells expressing the human 5-hydroxytryptamine 1F receptor
# Type: functional
Answers are plain numbers, as −log10 of the molar value.

Known pEC50 results, listed for orientation:
{"SMILES_STRUCTURE": "CN1CCC(c2c[nH]c3ccc(NC(=O)C4CCC4)nc23)CC1", "MEASURED_ON": "5-hydroxytryptamine receptor 1F (Homo sapiens)", "READOUT_NUMBER": 7.68}
{"SMILES_STRUCTURE": "CCCC(=O)Nc1ccc2[nH]cc(C3CCN(C)CC3)c2n1", "MEASURED_ON": "5-hydroxytryptamine receptor 1F (Homo sapiens)", "READOUT_NUMBER": 7.89}
{"SMILES_STRUCTURE": "CN1CCC(c2c[nH]c3ccc(NC(=O)C4CC4)nc23)CC1", "MEASURED_ON": "5-hydroxytryptamine receptor 1F (Homo sapiens)", "READOUT_NUMBER": 7.47}
{"SMILES_STRUCTURE": "CN1CCC(c2c[nH]c3ccc(NC(=O)c4ccncc4)nc23)CC1", "MEASURED_ON": "5-hydroxytryptamine receptor 1F (Homo sapiens)", "READOUT_NUMBER": 7.96}
{"SMILES_STRUCTURE": "CN1CCC(c2c[nH]c3ccc(NC(=O)c4ccsc4)nc23)CC1", "MEASURED_ON": "5-hydroxytryptamine receptor 1F (Homo sapiens)", "READOUT_NUMBER": 8.03}

Could you tell me pEC50 for each of these molecules? They are listed below.
1. CCC(=O)Nc1ccc2[nH]cc(C3CCN(C)CC3)c2n1
2. CN1CCC(c2c[nH]c3ccc(NC(=O)c4ccco4)nc23)CC1
3. CN1CCC(c2c[nH]c3ccc(NC(=O)c4ccccn4)nc23)CC1
4. CN1CCC(c2c[nH]c3ccc(NC(=O)c4cccs4)nc23)CC1
5. CN1CCC(c2c[nH]c3ccc(NC(=O)c4ccoc4)nc23)CC1

Result:
[7.49, 7.96, 7.60, 7.82, 7.96]

* * *

Read-out record for 5-hydroxytryptamine receptor 1B (Homo sapiens): Ki
Kindly write the number and append the unit.

Known Ki results, listed for orientation:
{"SMILES_STRUCTURE": "CN1CCC(c2c[nH]c3cnc(NC(=O)c4ccc(F)cc4)cc23)CC1", "MEASURED_ON": "5-hydroxytryptamine receptor 1B (Homo sapiens)", "RESULT": "80 nM"}
{"SMILES_STRUCTURE": "CN1CCC(c2c[nH]c3ccc(N)nc23)CC1", "MEASURED_ON": "5-hydroxytryptamine receptor 1B (Homo sapiens)", "RESULT": "800 nM"}
{"SMILES_STRUCTURE": "CN1CCC(c2c[nH]c3ccc(NC(=O)c4ccc(F)cc4)nc23)CC1", "MEASURED_ON": "5-hydroxytryptamine receptor 1B (Homo sapiens)", "RESULT": "1200 nM"}
{"SMILES_STRUCTURE": "CN1CCC(c2c[nH]c3ccc(NC(=O)c4ccco4)nc23)CC1", "MEASURED_ON": "5-hydroxytryptamine receptor 1B (Homo sapiens)", "RESULT": "1100 nM"}
{"SMILES_STRUCTURE": "Cc1cccc(C(=O)Nc2ccc3[nH]cc(C4CCN(C)CC4)c3n2)c1", "MEASURED_ON": "5-hydroxytryptamine receptor 1B (Homo sapiens)", "RESULT": "1200 nM"}
{"SMILES_STRUCTURE": "CN1CCC(c2c[nH]c3ccc(NC(=O)c4ccccn4)nc23)CC1", "MEASURED_ON": "5-hydroxytryptamine receptor 1B (Homo sapiens)", "RESULT": "1000 nM"}
{"SMILES_STRUCTURE": "CN1CCC(c2c[nH]c3ccc(NC(=O)c4ccoc4)nc23)CC1", "MEASURED_ON": "5-hydroxytryptamine receptor 1B (Homo sapiens)", "RESULT": "930 nM"}
{"SMILES_STRUCTURE": "COc1ccc2[nH]cc(C3CCN(C)CC3)c2n1", "MEASURED_ON": "5-hydroxytryptamine receptor 1B (Homo sapiens)", "RESULT": "110 nM"}

Could you tell me Ki for each of these compounds? They are listed below.
1. CN1CCC(c2c[nH]c3ccc(NC(=O)c4cccc(F)c4)nc23)CC1
2. COc1ccccc1C(=O)Nc1ccc2[nH]cc(C3CCN(C)CC3)c2n1
3. CCCCCCCC(=O)Nc1ccc2[nH]cc(C3CCN(C)CC3)c2n1

Result:
1600 nM
750 nM
32 nM
